System: Escherichia
protocol_details: Antimicrobial activity against Escherichia ATCC 25922 after 16 hrs
Type: functional
measurement_parameters: ATCC 25922, 16 h
readout_label: MIC

entry_smiles	meas_value
CC(=O)N[C@@H](CCCCN)CN(CC(=O)N[C@@H](CCCCN)CN(CC(=O)N[C@@H](CCCCN)CN(CC(=O)N[C@@H](CCCCN)CN(CC(=O)N[C@@H](CCCCN)CN(CC(=O)N[C@@H](CCCCN)CN(CC(=O)N[C@@H](CCCCN)CN(CC(=O)N[C@@H](CCCCN)CN(CC(N)=O)S(=O)(=O)Cc1ccccc1)S(=O)(=O)Cc1ccccc1)S(=O)(=O)Cc1ccccc1)S(=O)(=O)Cc1ccccc1)S(=O)(=O)Cc1ccccc1)S(=O)(=O)Cc1ccccc1)S(=O)(=O)Cc1ccccc1)S(=O)(=O)Cc1ccccc1	> 50 µg/mL

---

Each item that follows carries a reported MIC.
System: Escherichia
protocol_details: Antimicrobial activity against Escherichia ATCC 25922 after 16 hrs
Format: functional
measurement_parameters: ATCC 25922, 16 h
readout_label: MIC (µg/mL)

entry_smiles	target_or_test_system	unit_of_measure	qual	meas_value
CC(=O)N[C@@H](Cc1ccccc1)CN(CC(=O)N[C@@H](Cc1ccccc1)CN(CC(=O)N[C@@H](Cc1ccccc1)CN(CC(=O)N[C@@H](Cc1ccccc1)CN(CC(=O)N[C@@H](Cc1ccccc1)CN(CC(=O)N[C@@H](Cc1ccccc1)CN(CC(=O)N[C@@H](Cc1ccccc1)CN(CC(=O)N[C@@H](Cc1ccccc1)CN(CC(N)=O)S(=O)(=O)CCN)S(=O)(=O)CCN)S(=O)(=O)CCN)S(=O)(=O)CCN)S(=O)(=O)CCN)S(=O)(=O)CCN)S(=O)(=O)CCN)S(=O)(=O)CCN	Escherichia	µg/mL	>	50
CC(=O)N[C@@H](Cc1ccccc1)CN(CC(=O)N[C@@H](Cc1ccccc1)CN(CC(=O)N[C@@H](Cc1ccccc1)CN(CC(=O)N[C@@H](CCCCN)CN(CC(=O)N[C@@H](Cc1ccccc1)CN(CC(=O)N[C@@H](Cc1ccccc1)CN(CC(=O)N[C@@H](Cc1ccccc1)CN(CC(=O)N[C@@H](CCCCN)CN(CC(N)=O)S(=O)(=O)CCN)S(=O)(=O)Cc1ccccc1)S(=O)(=O)CCN)S(=O)(=O)Cc1ccccc1)S(=O)(=O)CCN)S(=O)(=O)Cc1ccccc1)S(=O)(=O)CCN)S(=O)(=O)Cc1ccccc1	Escherichia	µg/mL	=	4
CC(C)C[C@H](N)CN(CC(=O)N[C@@H](CC(C)C)CN(CC(=O)N[C@@H](CC(C)C)CN(CC(=O)N[C@@H](CCCCN)CN(CC(=O)N[C@@H](CC(C)C)CN(CC(=O)N[C@@H](CC(C)C)CN(CC(=O)N[C@@H](CC(C)C)CN(CC(=O)N[C@@H](CCCCN)CN(CC(N)=O)S(=O)(=O)CCN)S(=O)(=O)CC(C)C)S(=O)(=O)CCN)S(=O)(=O)CC(C)C)S(=O)(=O)CCN)S(=O)(=O)CC(C)C)S(=O)(=O)CCN)S(=O)(=O)CC(C)C	Escherichia	µg/mL	=	12
NCCCC[C@H](N)CN(CC(=O)N[C@@H](Cc1ccccc1)CN(CC(=O)N[C@@H](Cc1ccccc1)CN(CC(=O)N[C@@H](Cc1ccccc1)CN(CC(=O)N[C@@H](CCCCN)CN(CC(N)=O)S(=O)(=O)CCN)S(=O)(=O)Cc1ccccc1)S(=O)(=O)CCN)S(=O)(=O)Cc1ccccc1)S(=O)(=O)CCN	Escherichia	µg/mL	=	25
CC(=O)N[C@@H](CC(C)C)CN(CC(=O)N[C@@H](CC(C)C)CN(CC(=O)N[C@@H](CC(C)C)CN(CC(=O)N[C@@H](CCCCN)CN(CC(=O)N[C@@H](CC(C)C)CN(CC(=O)N[C@@H](CC(C)C)CN(CC(=O)N[C@@H](CC(C)C)CN(CC(=O)N[C@@H](CCCCN)CN(CC(N)=O)S(=O)(=O)CCN)S(=O)(=O)CC(C)C)S(=O)(=O)CCN)S(=O)(=O)CC(C)C)S(=O)(=O)CCN)S(=O)(=O)CC(C)C)S(=O)(=O)CCN)S(=O)(=O)CC(C)C	Escherichia	µg/mL	=	25
CC(=O)N[C@@H](CCCCN)CN(CC(=O)N[C@@H](Cc1ccccc1)CN(CC(=O)N[C@@H](CCCCN)CN(CC(=O)N[C@@H](Cc1ccccc1)CN(CC(=O)N[C@@H](CCCCN)CN(CC(=O)N[C@@H](Cc1ccccc1)CN(CC(=O)N[C@@H](CCCCN)CN(CC(=O)N[C@@H](Cc1ccccc1)CN(CC(N)=O)S(=O)(=O)Cc1ccccc1)S(=O)(=O)CCN)S(=O)(=O)Cc1ccccc1)S(=O)(=O)CCN)S(=O)(=O)Cc1ccccc1)S(=O)(=O)CCN)S(=O)(=O)Cc1ccccc1)S(=O)(=O)CCN	Escherichia	µg/mL	=	6
